Reference for the values: patent US4228292A

# post-emergent herbicidal rating listing for each entry below
# System: Rice
# EXPERIMENT: post-emergent herbicidal test; note: ranges in brackets are in %
# Assay type: in vivo
# EXPERIMENTAL_CONDITIONS: O; 1.12 kg/h; 4 WAT

Would you please look over these solved cases?
1. COC(=N)Cn1c(=O)sc2ccccc21 [Compound 37]: 0 (0-24)
2. COC(=N)Cn1c(=O)sc2ccc(Cl)cc21: 0 (0-24)
3. COC(=N)Cn1c(=O)sc2ccccc21 [Compound 11]: 0 (0-24)
4. CCOC(=N)Cn1c(=O)sc2ccccc21: 0 (0-24)
5. COC(=N)Cn1c(=O)sc2ccccc21 [Compound 38]: 1 (25-49)

Now consider the entry below.
IN: Lab request: please report post-emergent herbicidal rating under test system Rice for COC(=N)Cn1c(=O)sc2ccccc21 [Compound 24]
OUT: 1 (25-49)

---

# Test system: Wheat
# EXPERIMENT: post-emergent herbicidal test; note: ranges in brackets are in %
# Format: in vivo
# EXPERIMENTAL_CONDITIONS: N; 5.6 kg/h; 4 WAT
Examples of molecules with documented post-emergent herbicidal rating follow.

1) COC(=N)Cn1c(=O)sc2ccccc21 [Compound 24]: 1 (25-49)
2) COC(=N)Cn1c(=O)sc2ccccc21 [Compound 11]: 1 (25-49)

IN: Lab note: need post-emergent herbicidal rating for `COC(=N)Cn1c(=O)sc2ccc(Cl)cc21` on Wheat, anyone have it?
OUT: 1 (25-49)

IN: Recorded post-emergent herbicidal rating for COC(=N)Cn1c(=O)sc2ccccc21 [Compound 37] with Wheat, please?
OUT: 0 (0-24)

IN: Given the entry `CCOC(=N)Cn1c(=O)sc2ccccc21` , what post-emergent herbicidal rating was observed with Wheat?
OUT: 1 (25-49)

---

# Tested on: Rice
# EXPERIMENT: pre-emergent herbicidal test; note: ranges in brackets are in %
# Type: in vivo
# EXPERIMENTAL_CONDITIONS: O; 5.6 kg/h; 4 WAT
# Procedure: The pre-emergent test was conducted as follows: A good grade of top soil was placed in aluminum pans and compactd to a depth of 0.95 to 1.27 cm. from the top of the pan. On the top of the soil was placed a predetermined number of seeds or vegetative propagules of various plant species. The soil required to level fill the pans after seeding or adding vegetative propagules was weighed into a pan. […]
Documented pre-emergent herbicidal rating across a set of molecules

IN: Tell me the measured pre-emergent herbicidal rating of CCOC(=N)Cn1c(=O)sc2ccccc21 [Compound 12] , please.
OUT: 0 (0-24)

---

# Test system: Hemp Sesbania
# EXPERIMENT: pre-emergent herbicidal test; note: ranges in brackets are in %
# Assay type: in vivo
# EXPERIMENTAL_CONDITIONS: R; 1.12 kg/h; 4 WAT
Measured pre-emergent herbicidal rating, listed per entry for reference.

1. COC(=N)Cn1c(=O)sc2ccccc21 [Compound 24]: 1 (25-49)
2. CCOC(=N)Cn1c(=O)sc2ccccc21 [Compound 12]: 1 (25-49)
3. COC(=N)Cn1c(=O)sc2ccccc21 [Compound 11]: 1 (25-49)
4. CCCOC(=N)Cn1c(=O)sc2ccccc21: 2 (50-74)

Next up:
IN: Hi! What's the reported pre-emergent herbicidal rating for CCOC(=N)Cn1c(=O)sc2ccccc21 [Compound 25] on Hemp Sesbania?
OUT: 2 (50-74)

---

# Tested on: Sugar Beet
# EXPERIMENT: pre-emergent herbicidal test; note: ranges in brackets are in %
# Assay type: in vivo
# EXPERIMENTAL_CONDITIONS: M; 5.6 kg/h; 4 WAT
As shown below, each of these compounds has a reported pre-emergent herbicidal rating value.

Example entries begin here.
1) CCOC(=N)Cn1c(=O)sc2ccccc21 [Compound 12]: 3 (75-100)
2) COC(=N)Cn1c(=O)sc2cc(Br)ccc21 [Compound 33]: 1 (25-49)
3) COC(=N)Cn1c(=O)sc2ccccc21 [Compound 24]: 3 (75-100)
4) CCOC(=N)Cn1c(=O)sc2ccccc21 [Compound 25]: 3 (75-100)
5) CCCOC(=N)Cn1c(=O)sc2ccccc21 [Compound 30]: 3 (75-100)

With those in mind, consider the next compound.
IN: What is its pre-emergent herbicidal rating for Sugar Beet? Entry: COC(=N)Cn1c(=O)sc2ccccc21 [Compound 11]
OUT: 2 (50-74)
